target: Human Indoleamine 2,3-dioxygenase (IDO) (Homo sapiens, UniProt P14902); construct: His tag (N); made in house; host or cells: E. coli; assay: Human IDO enzymatic assay (kynurenine level); type: biochemical; settings: 6 nM IDO, 10 μM L-Trp; geometric mean; read-out: IDO1 GMean: IC50 (μM) (Biochemical Assay)
Sequence (P14902 whole entry): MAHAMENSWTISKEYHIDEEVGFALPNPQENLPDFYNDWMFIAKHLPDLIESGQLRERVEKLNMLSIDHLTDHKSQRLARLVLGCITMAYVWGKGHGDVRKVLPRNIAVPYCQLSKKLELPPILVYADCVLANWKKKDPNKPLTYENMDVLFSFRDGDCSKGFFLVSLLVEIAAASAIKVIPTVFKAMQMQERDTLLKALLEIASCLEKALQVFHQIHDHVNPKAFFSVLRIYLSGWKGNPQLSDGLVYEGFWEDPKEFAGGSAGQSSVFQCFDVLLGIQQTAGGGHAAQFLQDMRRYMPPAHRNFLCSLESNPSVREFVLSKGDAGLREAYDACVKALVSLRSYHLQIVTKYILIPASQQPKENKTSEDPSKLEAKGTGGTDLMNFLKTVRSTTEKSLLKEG
Measured IC50 values are reported for all entries that follow.

Consider the reported IC50 for these compounds:
[
  {
    "compound": "CCOC(=O)NC(=O)N1CCC(C(C)(C)C(O)c2cc(Cl)cc3cn[nH]c23)CC1 (stereo not drawn)",
    "IC50": "0.0001 to 10 µM"
  },
  {
    "compound": "O=C(CC1CC1)N1CCC(C(F)(F)C(O)c2cc(Cl)cc3cn[nH]c23)CC1 (stereo not drawn)",
    "IC50": "0.0001 to 10 µM"
  },
  {
    "compound": "CC(C)(C1CCN(C(=O)Nc2ccc(C#N)cc2)CC1)[C@H](O)c1c(F)c(Cl)cc2cn[nH]c12",
    "IC50": "0.0001 to 10 µM"
  }
]

[ask] So what IC50 did CC(C)(C1CCN(C(=O)C(F)(F)F)CC1)[C@H](O)c1cc(Cl)cc2cn[nH]c12 get with Human Indoleamine 2,3-dioxygenase (IDO) (Homo sapiens, UniProt P14902)?
[reply] 0.0001 to 10 µM

[ask] So what IC50 did CCOC(=O)N1CCC(C(C)(C)C(O)c2cc(Cl)cc3cn[nH]c23)CC1 (stereo not drawn) get with Human Indoleamine 2,3-dioxygenase (IDO) (Homo sapiens, UniProt P14902)?
[reply] 0.0001 to 10 µM

[ask] So what IC50 did CC1(C)CC(C(O)c2cc(Cl)cc3cn[nH]c23)C1 (stereo not drawn) get with Human Indoleamine 2,3-dioxygenase (IDO) (Homo sapiens, UniProt P14902)?
[reply] 0.0001 to 10 µM

[ask] So what IC50 did O=C(CN1CCS(=O)(=O)CC1)N1CCC(C(F)(F)C(O)c2cc(Cl)cc3cn[nH]c23)CC1 (stereo not drawn) get with Human Indoleamine 2,3-dioxygenase (IDO) (Homo sapiens, UniProt P14902)?
[reply] 0.0001 to 10 µM

[ask] So what IC50 did OC(c1c(Cl)c(Cl)cc2cn[nH]c12)C1CCC1 (stereo not drawn) get with Human Indoleamine 2,3-dioxygenase (IDO) (Homo sapiens, UniProt P14902)?
[reply] 0.0001 to 10 µM

----------
Target: human TDO (TDO-expressing HEK293 cells) (Homo sapiens)
Construct: expressed in transfected cells
Sequence (P48775 whole entry): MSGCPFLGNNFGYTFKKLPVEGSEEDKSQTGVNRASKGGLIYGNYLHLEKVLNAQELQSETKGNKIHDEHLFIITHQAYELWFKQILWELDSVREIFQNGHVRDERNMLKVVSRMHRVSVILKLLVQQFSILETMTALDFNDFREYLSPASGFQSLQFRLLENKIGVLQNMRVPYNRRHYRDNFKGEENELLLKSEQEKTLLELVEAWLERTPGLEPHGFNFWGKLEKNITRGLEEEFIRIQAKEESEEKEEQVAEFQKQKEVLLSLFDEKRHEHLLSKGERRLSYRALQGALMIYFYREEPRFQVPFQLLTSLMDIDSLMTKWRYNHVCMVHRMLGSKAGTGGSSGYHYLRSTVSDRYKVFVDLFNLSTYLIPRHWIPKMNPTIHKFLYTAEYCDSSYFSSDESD
Assay: Cell based kynurenine assay, TDO-expressing HEK293 cell clones
Conditions: TDO-expressing HEK293 cells, 24 hours incubation; geometric mean; read-out: HEK293 TDO Kynurenine GMean IC50 (μM) (Cellular Assay)
Procedure: Determine Inhibitor Activity Against IDO or TDO in Cell Based Kynurenine Assay IDO1-expressing or TDO-expressing HEK293 cell clones are generated upon stable transfection of plasmids expressing human IDO or human TDO under the control of CMV promoter. […] Cells were seeded in a 96 well plate in 50 μL of culture media at a density of 2.5×10^4 per well. […] After 24 hours of incubation, the supernatant was transferred to a 384 well reaction plate and the kynurenine level determined. […]
Measured IC50 values are reported for all entries that follow.

Consider the reported IC50 for these compounds:
[
  {
    "compound": "CC(C)(C1CCOCC1)C(O)c1c(Cl)c(Cl)cc2cn[nH]c12 (centres unmarked) [Compound P-0220]",
    "measured_on": "human TDO (TDO-expressing HEK293 cells) (Homo sapiens)",
    "observable": "IC50",
    "result": "0.0001 to 10 µM"
  },
  {
    "compound": "[2H]C(O)(c1cc(Cl)cc2cn[nH]c12)C(C)(C)C1CCOCC1 (centres unmarked) [Compound P-0244]",
    "measured_on": "human TDO (TDO-expressing HEK293 cells) (Homo sapiens)",
    "observable": "IC50",
    "result": "0.0001 to 10 µM"
  },
  {
    "compound": "CC(C)(C)OC(=O)N1CCC(C(O)c2cccc3cncn23)CC1 (centres unmarked) [Compound P-0076]",
    "measured_on": "human TDO (TDO-expressing HEK293 cells) (Homo sapiens)",
    "observable": "IC50",
    "result": "> 10 µM"
  },
  {
    "compound": "NC(=O)N1CCC(C(F)(F)C(O)c2c(F)c(Cl)cc3cn[nH]c23)CC1 (centres unmarked) [Compound P-0379]",
    "measured_on": "human TDO (TDO-expressing HEK293 cells) (Homo sapiens)",
    "observable": "IC50",
    "result": "0.0001 to 10 µM"
  },
  {
    "compound": "OC(CC1CCCCC1)c1cc(Cl)cc2cn[nH]c12 (centres unmarked) [Compound P-0007]",
    "measured_on": "human TDO (TDO-expressing HEK293 cells) (Homo sapiens)",
    "observable": "IC50",
    "result": "0.0001 to 10 µM"
  }
]

[ask] What value of IC50 has been reported for the following compound? CC(C)(C(O)c1cc(Cl)cc2cn[nH]c12)[C@H]1C[C@H]2CC[C@@H](C1)N2S(N)(=O)=O (some centres unmarked) [Compound P-0347]
[reply] 0.0001 to 10 µM

[ask] What value of IC50 has been reported for the following compound? O[C@@H](c1c(F)c(Cl)cc2cn[nH]c12)C12CCC(CC1)CC2 [Compound P-0335]
[reply] > 10 µM

[ask] What value of IC50 has been reported for the following compound? CS(=O)(=O)N1CCC(C(F)(F)C(O)c2c3c(cc4cn[nH]c24)CC3)CC1 (centres unmarked) [Compound P-0296]
[reply] > 10 µM
